Where these numbers come from: patent US20210221899A1

Target: T1, canine NGF (canine, UniProt Q29074 110-229 (pig entry), limits assumed)
T1 construct: The protein was secreted from CHO cells and purified; also called cNGF; canine β-NGF
T1 chain: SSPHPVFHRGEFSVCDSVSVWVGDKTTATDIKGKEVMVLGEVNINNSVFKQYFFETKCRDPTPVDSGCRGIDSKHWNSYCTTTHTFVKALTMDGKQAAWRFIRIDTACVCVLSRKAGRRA
Experiment: SPR (Biacore T200), 100 nM mAb on NGF chip, similarity to parent mAb
Reported Percent Similarity Score (KD on cN) values for a set of binders
Metric name: Percent Similarity Score (KD on cN) (%)

binder="can9L12VH_P110A (antibody, V domains shown) VH: EVQLVESGGDLVKPGGSLRLSCVASGFTFSSHGMHWVRQSPGKGLQWVAVINSGGSSTYYTDAVKGRFTISRDNAKNTVYLQMNSLRAEDTAMYYCAKESVGGWEQLVGAHFDYWGQGTLVIVSS VL: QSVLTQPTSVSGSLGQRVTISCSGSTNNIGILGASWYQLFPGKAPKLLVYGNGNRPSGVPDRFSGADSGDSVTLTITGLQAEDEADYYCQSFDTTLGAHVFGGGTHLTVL" numeric_result=6.48
binder="can9L12VH_F112A (antibody, V domains shown) VH: EVQLVESGGDLVKPGGSLRLSCVASGFTFSSHGMHWVRQSPGKGLQWVAVINSGGSSTYYTDAVKGRFTISRDNAKNTVYLQMNSLRAEDTAMYYCAKESVGGWEQLVGPHADYWGQGTLVIVSS VL: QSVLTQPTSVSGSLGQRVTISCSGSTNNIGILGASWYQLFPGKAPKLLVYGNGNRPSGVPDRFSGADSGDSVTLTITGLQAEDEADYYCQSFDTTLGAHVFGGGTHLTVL" numeric_result=28.3
binder="can48L2VH_G54A (antibody, V domains shown, CDR scanning mutant of ZTS-842 (48L2)) VH: EVQLVESGGDLVKPGGSLRLSCVASGFTFSTYGINWVRQAPGKGLQWVAYISSAGSSTYYADPVKGRFTISRDDAKNMLYLQMNSLRAEDTAIYYCAGSRYTYAYGGGYEFHFWGQGTLVTVSS VL: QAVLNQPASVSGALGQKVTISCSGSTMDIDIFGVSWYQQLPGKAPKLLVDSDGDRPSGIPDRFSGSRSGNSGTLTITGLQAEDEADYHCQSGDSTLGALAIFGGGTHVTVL" numeric_result=98.1
binder="can48L2VH_S53A (antibody, V domains shown, CDR scanning mutant of ZTS-842 (48L2)) VH: EVQLVESGGDLVKPGGSLRLSCVASGFTFSTYGINWVRQAPGKGLQWVAYISAGGSSTYYADPVKGRFTISRDDAKNMLYLQMNSLRAEDTAIYYCAGSRYTYAYGGGYEFHFWGQGTLVTVSS VL: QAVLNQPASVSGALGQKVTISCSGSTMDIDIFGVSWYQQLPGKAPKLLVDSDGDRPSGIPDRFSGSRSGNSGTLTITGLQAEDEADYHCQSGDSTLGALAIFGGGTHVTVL" numeric_result=97.8
binder="can9L12VH_S30A (antibody, V domains shown) VH: EVQLVESGGDLVKPGGSLRLSCVASGFTFASHGMHWVRQSPGKGLQWVAVINSGGSSTYYTDAVKGRFTISRDNAKNTVYLQMNSLRAEDTAMYYCAKESVGGWEQLVGPHFDYWGQGTLVIVSS VL: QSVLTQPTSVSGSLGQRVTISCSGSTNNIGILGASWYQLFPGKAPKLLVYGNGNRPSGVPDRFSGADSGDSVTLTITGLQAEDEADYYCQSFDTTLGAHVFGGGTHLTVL" numeric_result=94.7
